# protocolDescription: Mouse Th17 T cell differentiation assay for inhibitors of ROR gamma transcriptional activity
# assaySetup: mouse naive CD4 T cells Th17, IL17a-GFP flow cytometry; series mostly up to 20 µM
Inconclusive results are not listed. Active and inactive are the calls of the source. Calls follow the shape of the full dose curve.
Your reply should match one of these outcome classes. t (active), f (inactive)

Worked set:
compound="COc1cc(O)c(C(CC(=O)N2CCC(C)CC2)c2ccc3c(c2)OCO3)c(OC)c1 (centres undefined)" labelclass=f
compound="COc1ccc(C(CC(=O)N2CC(C)CC(C)C2)c2c(O)cc(OC)cc2OC)cc1 (centres undefined)" labelclass=t
compound="COc1cc(O)c(C(CC(=O)N2C[C@H](C)C[C@H](C)C2)c2ccc3c(c2)OCO3)c(OC)c1 (some centres undefined)" labelclass=t

From here, focus on the item given below.
Could you please tell me the result logged for COc1cc(O)c(C(CC(=O)N2CCCC(C)C2)c2cccs2)c(OC)c1 (centres undefined) in this assay? t

====

# protocolDescription: Mouse Th17 T cell differentiation assay for inhibitors of ROR gamma transcriptional activity
# assaySetup: mouse naive CD4 T cells Th17, IL17a-GFP flow cytometry; series mostly up to 20 µM
Records with an inconclusive call do not appear. Calls of active or inactive are those of the source. Calls come from the whole dose curve.
Your reply should match one of these outcome classes. active, inactive

compound="COc1cc(O)c(C(CC(=O)N2CC(C)OC(C)C2)c2ccc3c(c2)OCO3)c(OC)c1 (stereo not given)" labelclass=active
compound="COc1ccc(C(CC(=O)N2CCCC(C)C2)c2c(O)cc(OC)cc2OC)cc1 (stereo not given)" labelclass=active
compound="COc1cc(O)c(C(CC(=O)N2CCCC(C(F)(F)F)C2)c2ccc3c(c2)OCO3)c(OC)c1 (stereo not given)" labelclass=active
compound="COc1cccc(O)c1C(CC(=O)N1CCCC(C)C1)c1ccc2c(c1)OCO2 (stereo not given)" labelclass=inactive

Could you please tell me the result logged for COc1cc(O)c(C(CC(=O)N2CC(C)NC(C)C2)c2ccc3c(c2)OCO3)c(OC)c1 (stereo not given) in this assay? inactive

====

# protocolDescription: Mouse Th17 T cell differentiation assay for inhibitors of ROR gamma transcriptional activity
# assaySetup: mouse naive CD4 T cells Th17, IL17a-GFP flow cytometry; series mostly up to 20 µM
Results filed as inconclusive are left out. Calls of active or inactive are those of the source. Calls follow the shape of the full dose curve.
Your reply should match one of these outcome classes. Y = active, N = inactive

Worked set:
compound="COc1cc(OC)c(C(CC(=O)N2CC(C)CC(C)C2)c2ccc3c(c2)OCO3)c(OCC#N)c1 (stereo not given)" labelclass=Y
compound="COc1cc(OC)c(C(CC(=O)N2CC(C)CC(C)C2)c2ccc3c(c2)OCO3)c(OCC(N)=O)c1 (stereo not given)" labelclass=N
compound="COc1cc(O)c(C(CC(=O)N2CC(C)CC(C)C2)c2ccc(N(C)C)cc2)c(OC)c1 (stereo not given)" labelclass=Y
compound="COc1cc(O)c(C(CC(=O)N2CC(C)CC(C)C2)c2ccc(O)cc2)c(OC)c1 (stereo not given)" labelclass=Y

From here, focus on the item given below.
Could you please tell me the result logged for COc1cc(O)c(C(CC(=O)N2CCCC(C)C2)c2ccc(C)cc2)c(OC)c1 (stereo not given) in this assay? Y

====

# protocolDescription: Mouse Th17 T cell differentiation assay for inhibitors of ROR gamma transcriptional activity
# assaySetup: mouse naive CD4 T cells Th17, IL17a-GFP flow cytometry; series mostly up to 20 µM
Records with an inconclusive call do not appear. Active and inactive are the calls of the source. The call rests on the fitted dose curve.
measurementName: Potency

Solved cases (4 shown):
compound="COc1ccc(C(CC(=O)N2CCCC(C)C2)c2c(O)cc(OC)cc2OC)c(OC)c1 (stereo not given)" endpointvalue=inactive
compound="COc1ccc(C(CC(=O)N2CCCC(C)C2)c2ccc3c(c2)OCO3)c(O)c1 (stereo not given)" endpointvalue=inactive
compound="COCOc1cc(OC)cc(OC)c1C(CC(=O)N1CC(C)CC(C)C1)c1ccc2c(c1)OCO2 (stereo not given)" endpointvalue="1000 nM (active)"
compound="COc1cc(O)c(C(CC(=O)N2CC(C)CC(C)C2)c2ccc(C)cc2)c(OC)c1 (stereo not given)" endpointvalue="500 nM (active)"

Specify reported Potency for the compound shown: COc1cc(O)c(C(CC(=O)N2CCCC(C)C2)c2ccccc2)c(OC)c1 (stereo not given) inactive
